biological target: 5-HT2B (Homo sapiens); construct: purchased NIMH Psychoactive Drug Screening Program (PDSP); assay: PDSP primary binding 5-HT2B; conditions: 1.5 h; primary binding, 10,000 nM; last figure of the line = mean of the 4 before it; read-out: 5-HT2B, PDSP raw data, mean
Sequence (P41595 whole entry): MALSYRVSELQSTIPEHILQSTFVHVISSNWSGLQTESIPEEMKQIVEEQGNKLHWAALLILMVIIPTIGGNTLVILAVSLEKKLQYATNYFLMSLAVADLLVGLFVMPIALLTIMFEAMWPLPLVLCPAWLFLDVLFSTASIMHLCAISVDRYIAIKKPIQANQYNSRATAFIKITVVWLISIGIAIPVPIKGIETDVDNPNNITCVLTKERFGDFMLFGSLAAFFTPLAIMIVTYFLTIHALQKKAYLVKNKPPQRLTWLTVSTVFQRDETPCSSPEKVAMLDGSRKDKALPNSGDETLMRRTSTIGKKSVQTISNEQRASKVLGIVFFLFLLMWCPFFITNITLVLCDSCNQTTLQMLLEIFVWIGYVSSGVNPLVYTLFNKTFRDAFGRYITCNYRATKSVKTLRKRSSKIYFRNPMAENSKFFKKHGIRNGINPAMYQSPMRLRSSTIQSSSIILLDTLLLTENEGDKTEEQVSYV
# key: entry, value: inhibition at 10 µM
parameter-measured: inhibition at 10 µM (%)

INSERT INTO measurements (compound, unit_label, value_observed) VALUES
  ('C[C@H]1N=C(c2ccccc2F)c2cc(-c3ccccc3)ccc2-n2cnc(C(=O)N(C)C)c21 [Compound 5]', '%', 26.5),
  ('CC(C)c1noc(-c2ncn3c2[C@@H](C)N=C(c2ccccc2F)c2cc(Cl)ccc2-3)n1 [Compound 37]', '%', 8.56),
  ('C#Cc1ccc2c(c1)C(c1ccccc1F)=N[C@H](C)c1c(C(=S)N(C)C)ncn1-2 [Compound 33]', '%', 26.5),
  ('CCc1noc(-c2ncn3c2[C@@H](C)N=C(c2ccccc2F)c2cc(C4CC4)ccc2-3)n1 [Compound 46]', '%', 25.1),
  ('CCc1noc(-c2ncn3c2CN=C(c2ccccc2F)c2cc(C4CC4)ccc2-3)n1 [Compound 44]', '%', 18.5),
  ('C[C@H]1N=C(c2ccccc2F)c2cc(Cl)ccc2-n2cnc(-c3nc(C4CC4)no3)c21 [Compound 38]', '%', 10),
  ('CCc1noc(-c2ncn3c2[C@@H](C)N=C(c2ccccc2F)c2cc(-c4ccccc4)ccc2-3)n1 [Compound 35]', '%', 13.8),
  ('C#Cc1ccc2c(c1)C(c1ccccc1Cl)=N[C@H](C)c1c(C(=O)N(C)CC)ncn1-2 [Compound 29]', '%', 30);
